Provenance of the data: patent US7893074B2

study.system: FAK (Mus musculus, UniProt P34152)
Sequence (P34152 2-1052): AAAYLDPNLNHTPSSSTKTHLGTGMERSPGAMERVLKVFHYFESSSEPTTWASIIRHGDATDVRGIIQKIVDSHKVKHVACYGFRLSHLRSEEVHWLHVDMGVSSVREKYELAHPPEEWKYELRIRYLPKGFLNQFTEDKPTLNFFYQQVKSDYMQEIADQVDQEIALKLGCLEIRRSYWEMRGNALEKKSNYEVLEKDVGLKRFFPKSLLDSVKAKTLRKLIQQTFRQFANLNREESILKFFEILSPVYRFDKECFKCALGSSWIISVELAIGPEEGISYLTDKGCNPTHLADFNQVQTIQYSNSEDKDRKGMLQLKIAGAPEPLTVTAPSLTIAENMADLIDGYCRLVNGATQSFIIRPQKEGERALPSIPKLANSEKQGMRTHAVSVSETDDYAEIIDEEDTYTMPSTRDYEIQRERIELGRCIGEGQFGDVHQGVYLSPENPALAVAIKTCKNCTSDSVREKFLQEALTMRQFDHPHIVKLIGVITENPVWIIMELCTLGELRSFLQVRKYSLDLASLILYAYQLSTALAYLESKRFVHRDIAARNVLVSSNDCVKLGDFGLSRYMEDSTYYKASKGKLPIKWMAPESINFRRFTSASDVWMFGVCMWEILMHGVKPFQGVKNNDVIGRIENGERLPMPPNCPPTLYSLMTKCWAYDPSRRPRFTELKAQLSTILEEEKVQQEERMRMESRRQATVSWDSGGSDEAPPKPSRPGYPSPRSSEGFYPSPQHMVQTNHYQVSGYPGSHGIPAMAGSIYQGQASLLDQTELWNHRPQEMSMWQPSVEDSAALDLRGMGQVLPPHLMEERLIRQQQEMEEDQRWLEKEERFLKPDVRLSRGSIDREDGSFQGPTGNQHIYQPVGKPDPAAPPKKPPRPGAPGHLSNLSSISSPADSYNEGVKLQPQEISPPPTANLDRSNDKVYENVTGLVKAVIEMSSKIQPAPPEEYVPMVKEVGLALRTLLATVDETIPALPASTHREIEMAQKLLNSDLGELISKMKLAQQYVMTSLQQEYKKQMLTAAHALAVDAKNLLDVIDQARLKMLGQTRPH
protocol.details: Phos IC50 (phosphorylation)
pIC50: −log10 of the molar value.
assay.endpoint: pIC50

Some solved cases for reference:
CNS(=O)(=O)c1ccccc1Nc1nc(Nc2cc(OC)c(OC)cc2C)ncc1Br :: 7.52
CNS(=O)(=O)c1ccccc1Nc1nc(Nc2ccc(N3CCS(=O)(=O)CC3)cc2OC)ncc1Br :: 7.30
CNS(=O)(=O)c1ccccc1Nc1nc(Nc2cc(OC)ccc2C)ncc1Br :: 6.85

[P] COc1cc(N2CCC(O)CC2)ccc1Nc1ncc(Cl)c(Nc2ccccc2S(=O)(=O)C(C)C)n1
[Q] CCCS(=O)(=O)c1ccccc1Nc1nc(Nc2ccc(N3CCN(C(=O)C(C)C)CC3)cc2OC)ncc1Cl
[R] CNS(=O)(=O)c1ccccc1Nc1nc(Nc2ccc(F)cc2OC)ncc1Br
[S] COc1cc(OC2CCN(C)CC2)ccc1Nc1ncc(Cl)c(Nc2ccccc2S(=O)(=O)NC2CCCC2)n1
[T] CNC(=O)c1ccccc1Nc1nc(Nc2cc(N3CCOCC3)ccc2OC)ncc1Cl
Data request: Could you please order the items by pIC50, going from the lowest number to the highest? Please express your ranking as an ordered list of the labels.
Data returned: T, S, R, P, Q

[I] CCCS(=O)(=O)c1ccccc1Nc1nc(Nc2ccc(N3CCOCC3)cc2OC)ncc1Cl
[II] CNS(=O)(=O)c1ccccc1Nc1nc(Nc2cc(C(=O)NC3CCCCC3)ccc2C)ncc1Br
Data request: Which record shows the lower pIC50: the first, I , or the second, II ? I would appreciate it if you answered with the label of your choice.
Data returned: II
(II: 6.41, I: 7.30)

[A] CNC1CCN(c2ccc(Nc3ncc(Cl)c(Nc4ccccc4S(=O)(=O)C(C)C)n3)c(OC)c2)C1 (centres unmarked)
[B] CNC(=O)c1ccccc1Nc1nc(Nc2cc(N3CCOCC3)ccc2OC)ncc1Br
[C] CCCS(=O)(=O)c1ccccc1Nc1nc(Nc2cc(N3CCOCC3)ccc2OC)ncc1Cl
Data request: Could you please order the items by pIC50, going from the lowest number to the highest? Please express your ranking as an ordered list of the labels.
Data returned: B, C, A
(B: 6.22, C: 6.52, A: 7.00)

[P] CCCS(=O)(=O)c1ccccc1Nc1nc(Nc2ccc(N3CCC(NC)C3)cc2OC)ncc1Cl (centres unmarked)
[Q] COc1cc(N2CCOCC2)ccc1Nc1ncc(Cl)c(Nc2ccccc2S(=O)(=O)NCC(C)C)n1
[R] CNS(=O)(=O)c1ccccc1Nc1nc(Nc2ccc(OCCCN3CCOCC3)cc2C)ncc1Br
Data request: Could you please order the items by pIC50, going from the lowest number to the highest? Please express your ranking as an ordered list of the labels.
Data returned: P, Q, R

* * *

study.system: FAK (Mus musculus, UniProt P34152)
protocol.details: Phos IC50 (phosphorylation)
assay.endpoint: IC50 (nM)

Some solved cases for reference:
CCC(CC)NS(=O)(=O)c1ccccc1Nc1nc(Nc2ccc(OC3CCN(C)CC3)cc2OC)ncc1Cl :: 600
CNS(=O)(=O)c1ccccc1Nc1nc(Nc2ccc(OCC3CCN(C)CC3)cc2OC)ncc1Cl :: 210
CNS(=O)(=O)c1ccccc1Nc1nc(Nc2cccc3c2OC(F)(F)O3)ncc1Br :: 340

[A] CNS(=O)(=O)c1ccccc1Nc1nc(Nc2cc(OC)ccc2OC)ncc1Br
[B] CNS(=O)(=O)c1ccccc1Nc1nc(Nc2ccccc2C)ncc1Br
[C] CNS(=O)(=O)c1ccccc1Nc1nc(Nc2cc(-c3ccncc3)ccc2C)ncc1Br
[D] CNS(=O)(=O)c1ccccc1Nc1nc(Nc2cc(OCCN3CCOCC3)ccc2OC)ncc1Cl
Data request: Sort these molecules on IC50 so the largest reading comes first. Please express your ranking as an ordered list of the labels.
Data returned: D, B, A, C

* * *

study.system: Focal Adhesion Kinase (FAK) (Homo sapiens, UniProt Q05397)
Sequence (Q05397 384-706): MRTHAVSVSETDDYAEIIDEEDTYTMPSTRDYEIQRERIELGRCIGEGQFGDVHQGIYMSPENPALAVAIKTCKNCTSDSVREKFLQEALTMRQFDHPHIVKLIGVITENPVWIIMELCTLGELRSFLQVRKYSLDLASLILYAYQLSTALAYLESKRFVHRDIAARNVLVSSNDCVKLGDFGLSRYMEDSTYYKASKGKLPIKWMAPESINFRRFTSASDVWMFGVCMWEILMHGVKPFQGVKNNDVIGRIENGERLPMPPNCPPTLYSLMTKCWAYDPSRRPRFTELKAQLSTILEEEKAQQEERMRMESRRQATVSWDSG
protocol.details: FAK assay system (Focal Adhesion Kinase inhibition)
Type: biochemical
condition.details: read-out: FAK IC50
assay.endpoint: IC50 (nM)

Some solved cases for reference:
COc1cc(OC2CCN(C)CC2)ccc1Nc1ncc(Cl)c(Nc2ccccc2S(=O)(=O)NC2CCCC2)n1 [Example 25-2] :: 3
COc1cc(N2CCOCC2)ccc1Nc1ncc(Cl)c(Nc2ccccc2S(=O)(=O)C2CCCC2)n1 [Example 33-2] :: 5.2
CNS(=O)(=O)c1ccccc1Nc1nc(Nc2cc(OC)ccc2OC)ncc1[N+](=O)[O-] [Example 1] :: 140

[a] COc1cc(N2CCN3CCOC[C@H]3C2)ccc1Nc1ncc(Cl)c(Nc2ccccc2S(=O)(=O)NC(C)C)n1 [Example 19-31]
[b] COc1cc(N2CCOCC2)ccc1Nc1ncc(Cl)c(Nc2ccccc2S(=O)(=O)Cc2ccccc2)n1 [Example 34-5]
[c] CNC(=O)c1ccccc1Nc1nc(Nc2ccc(N3CCC(C(N)=O)CC3)cc2OC)ncc1Cl [Example 7-13]
[d] COc1cc(N2CCC(O)CC2)ccc1Nc1ncc(Cl)c(Nc2ccccc2S(=O)(=O)C(C)C)n1 [Example 28-16]
Data request: Could you please order the items by IC50, going from the lowest number to the highest? Please express your ranking as an ordered list of the labels.
Data returned: a, c, d, b

* * *

study.system: Focal Adhesion Kinase (FAK) (Homo sapiens)
protocol.details: FAK assay system (Focal Adhesion Kinase inhibition)
Assay type: biochemical
condition.details: read-out: FAK IC50
assay.endpoint: IC50 (nM)

CCC(CC)S(=O)(=O)c1ccccc1Nc1nc(Nc2ccc(N3CCN(C(C)=O)CC3)cc2OC)ncc1Cl [Example 29-3] :: 5.6
COc1cc(N2CCOCC2)ccc1Nc1ncc(Cl)c(Nc2ccccc2S(=O)(=O)c2ccccc2)n1 [Example 34-6] :: 14
CCCOc1cc(N2CCN(C)CC2)ccc1Nc1ncc(Cl)c(Nc2ccccc2S(=O)(=O)NC)n1 [Example 20-14] :: 33
CCC(CC)NS(=O)(=O)c1ccccc1Nc1nc(Nc2ccc(OCCN3CCN(C)CC3)cc2OC)ncc1Cl [Example 23-9] :: 2.1
CNS(=O)(=O)c1ccccc1Nc1nc(Nc2cccc3c2ccn3CCCN2CCOCC2)ncc1Cl [Example 20-10] :: 2

[P] CNS(=O)(=O)c1ccccc1Nc1nc(Nc2cc(N3CCC(N(C)C)C3)ccc2OC)ncc1Cl (stereo not drawn) [Example 20-20]
[Q] CNS(=O)(=O)c1ccccc1Nc1nc(Nc2cc(F)ccc2Cl)ncc1Br [Example 3-38]
Data request: Which record shows the lower IC50: the first, P , or the second, Q ? I would appreciate it if you answered with the label of your choice.
Data returned: P
(P: 3.12 nM, Q: 64 nM)

[1] COc1cc(N2CCOCC2)ccc1Nc1ncc(Cl)c(Nc2ccccc2C(=O)N(C)C)n1 [Example 14-1]
[2] COc1cc(N2CCN3COCC[C@H]3C2)ccc1Nc1ncc(Cl)c(Nc2ccccc2S(=O)(=O)C(C)C)n1 [Example 28-26]
[3] COc1cc(N2CCC(N3CCCCC3)CC2)ccc1Nc1ncc(Cl)c(Nc2ccccc2S(=O)(=O)C(C)C)n1 [Example 28-8]
[4] CNS(=O)(=O)c1ccccc1Nc1nc(Nc2ccc(OCCCN3CCN(C)CC3)cc2OC)ncc1Br [Example 3-72]
Data request: Sort these molecules on IC50 so the largest reading comes first. Please express your ranking as an ordered list of the labels.
Data returned: 1, 2, 3, 4

* * *

study.system: IGF-IR (Homo sapiens)
Sequence (P08069 31-1367): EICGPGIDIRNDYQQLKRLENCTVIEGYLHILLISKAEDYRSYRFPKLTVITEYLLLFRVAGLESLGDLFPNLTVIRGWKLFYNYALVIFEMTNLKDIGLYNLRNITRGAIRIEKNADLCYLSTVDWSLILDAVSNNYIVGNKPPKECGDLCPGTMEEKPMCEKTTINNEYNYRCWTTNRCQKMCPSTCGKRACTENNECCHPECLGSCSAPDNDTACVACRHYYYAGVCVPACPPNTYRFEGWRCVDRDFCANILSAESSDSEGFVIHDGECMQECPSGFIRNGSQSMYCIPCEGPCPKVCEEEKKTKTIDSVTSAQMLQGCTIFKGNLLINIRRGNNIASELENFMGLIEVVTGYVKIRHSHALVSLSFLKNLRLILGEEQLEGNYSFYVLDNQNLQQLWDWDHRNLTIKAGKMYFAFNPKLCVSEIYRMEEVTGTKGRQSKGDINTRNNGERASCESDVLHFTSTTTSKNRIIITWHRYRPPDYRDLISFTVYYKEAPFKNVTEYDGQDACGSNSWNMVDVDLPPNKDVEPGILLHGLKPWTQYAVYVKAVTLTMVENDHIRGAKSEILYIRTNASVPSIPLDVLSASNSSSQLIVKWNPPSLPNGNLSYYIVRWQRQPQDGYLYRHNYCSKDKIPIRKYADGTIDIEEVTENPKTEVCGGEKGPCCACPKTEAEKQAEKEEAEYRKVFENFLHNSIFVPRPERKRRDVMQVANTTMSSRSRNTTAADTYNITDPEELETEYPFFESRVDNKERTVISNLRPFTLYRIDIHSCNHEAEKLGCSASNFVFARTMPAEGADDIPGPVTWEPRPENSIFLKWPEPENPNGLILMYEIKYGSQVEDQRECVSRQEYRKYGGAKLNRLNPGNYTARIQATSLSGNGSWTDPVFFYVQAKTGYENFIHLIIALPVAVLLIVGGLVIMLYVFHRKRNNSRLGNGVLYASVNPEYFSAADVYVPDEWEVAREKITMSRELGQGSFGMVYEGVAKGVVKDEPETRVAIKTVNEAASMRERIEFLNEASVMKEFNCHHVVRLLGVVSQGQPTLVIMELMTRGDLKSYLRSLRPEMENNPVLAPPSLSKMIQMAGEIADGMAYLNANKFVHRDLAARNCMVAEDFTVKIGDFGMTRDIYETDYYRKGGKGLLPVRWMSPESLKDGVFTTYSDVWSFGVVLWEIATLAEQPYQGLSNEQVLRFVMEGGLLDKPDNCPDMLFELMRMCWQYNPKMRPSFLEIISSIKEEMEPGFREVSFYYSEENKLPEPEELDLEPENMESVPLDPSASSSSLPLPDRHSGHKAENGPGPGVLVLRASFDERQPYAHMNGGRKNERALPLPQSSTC
protocol.details: Cellular Capture ELISA of IGF-I induced autophosphorylation of the IGF-IR
condition.details: read-out: IGF-1R IC50
pIC50: −log10 of the molar value.
assay.endpoint: pIC50

Some solved cases for reference:
CNS(=O)(=O)c1ccccc1Nc1nc(Nc2ccc(OC)nc2OC)ncc1Br [Example 3-50] :: 5.92
CNS(=O)(=O)c1ccccc1Nc1nc(Nc2ccc(N3CCC(C(N)=O)CC3)cc2OC)ncc1Br [Example 3-43] :: 6.57
CNC(=O)c1ccccc1Nc1nc(Nc2ccc(N3CCC(N4CCCCC4)CC3)cc2OC)ncc1Cl [Example 7-1] :: 6.72
CNC1CCN(c2ccc(Nc3ncc(Cl)c(Nc4ccccc4S(=O)(=O)NC(C)C)n3)c(OC)c2)C1 (stereo not shown) [Example 19-1] :: 5.85
COc1cc(OC2CCN(C)CC2)ccc1Nc1ncc(Cl)c(Nc2ccccc2S(=O)(=O)NC2CCC2)n1 [Example 24-2] :: 6.41
CC(C)NS(=O)(=O)c1ccccc1Nc1nc(Nc2ccc(N3CCOCC3)cc2F)ncc1Cl [Example 19-25] :: 6.62

[P] CNS(=O)(=O)c1ccccc1Nc1nc(Nc2ccc(N3CCN(C(C)=O)CC3)cc2OC)ncc1Cl [Example 20-2]
[Q] CCC(CC)S(=O)(=O)c1ccccc1Nc1nc(Nc2ccc(N3CCOCC3)cc2OC)ncc1Cl [Example 29-1]
Data request: Higher pIC50: P or Q ? I would appreciate it if you answered with the label of your choice.
Data returned: Q
(Q: 7.05, P: 6.28)

[1] CCCS(=O)(=O)c1ccccc1Nc1nc(Nc2ccc(OC3CCN(C)CC3)cc2OC)ncc1Cl [Example 26-26]
[2] CNC1CCN(c2ccc(Nc3ncc(Cl)c(Nc4ccccc4S(=O)(=O)NC(C)C)n3)c(OC)c2F)C1 (stereo not shown) [Example 19-12]
Data request: Which record shows the lower pIC50: the first, 1 , or the second, 2 ? I would appreciate it if you answered with the label of your choice.
Data returned: 2
(2: 6.20, 1: 6.47)

[a] CCC(CC)NS(=O)(=O)c1ccccc1Nc1nc(Nc2ccc(OC3CCN(C)CC3)cc2OC)ncc1Cl [Example 23-1]
[b] COc1cc(NCC(C)(C)CN(C)C)ccc1Nc1ncc(Cl)c(Nc2ccccc2S(=O)(=O)NC(C)C)n1 [Example 19-10]
Data request: Which record shows the lower pIC50: the first, a , or the second, b ? I would appreciate it if you answered with the label of your choice.
Data returned: b
(b: 5.99, a: 6.28)
